Catalogue of APOE RNA (% UTC) values
Tested on: human APOE RNA
Test: Dose-dependent inhibition of human APOE RNA in HepG2 cells, electroporation, 50,000 cells per well, RT-PCR normalized to GAPDH (Example 4, Tables 8-10)
Type: cell-based
Conditions: 13 nM; HepG2, electroporation, 16-hour treatment
Strand notation (5' to 3'): a small letter for the sugar, then the base; units joined by * are phosphorothioate-linked, units joined directly phosphodiester-linked; [ ] holds rarer units or linkages, { } end groups; capitals alone tell only the bases. [ms] = mesyl phosphoramidate linkage; e = 2'-O-(2-methoxyethyl) (MOE); k = constrained ethyl (cEt); [5mC] = 5-methylcytosine; d = 2'-deoxy (DNA)

Below: 6 substances and their reported APOE RNA (% UTC).
{"Substance": "1757566 (eA*e[5mC]eTkTkG*dG*dT*dG*dA*dA*dT*d[5mC]*dT*dT*dT*eAeTeT*eA*eA; antisense) [Compound 1757566]", "Result": "87 % UTC"}
{"Substance": "Aes^mCeoTeoTesGesGksTdsGdzAdzAdzTds^mCdsTdsTdsTdsAdzTksTksAesAe (eA*e[5mC]eTeT*eG*kG*dT*dG[ms]dA[ms]dA[ms]dT*d[5mC]*dT*dT*dT*dA[ms]kT*kT*eA*eA) [Compound No. 1757576]", "Result": "74 % UTC"}
{"Substance": "1757585 (eT*eTeGkGkT*dG*dA*dA*dT*d[5mC]*dT*dT*dT*dA*dT*kTeAeA*eA*e[5mC]; antisense) [Compound 1757585]", "Result": "49 % UTC"}
{"Substance": "1757581 (eT*eTeGeGkT*dG*dA*dA*dT*d[5mC]*dT*dT*dT*dA*dT*eTeAeA*eA*e[5mC]; antisense) [Compound 1757581]", "Result": "85 % UTC"}
{"Substance": "1757556: mixed MOE/cEt gapmer TTGGTGAATCTTTATTAA, sugar eeeeeddddddddekkee, linkages soossssssssssooss (eT*eTeGeG*eT*dG*dA*dA*dT*d[5mC]*dT*dT*dT*eAkTkT*eA*eA) [compound 1757556]", "Result": "93 % UTC"}
{"Substance": "1757541: mixed MOE/cEt gapmer TTGGTGAATCTTTATTAA, sugar eeeekddddddddeeeee, linkages soossssssssssooss (eT*eTeGeG*kT*dG*dA*dA*dT*d[5mC]*dT*dT*dT*eAeTeT*eA*eA) [compound 1757541]", "Result": "103 % UTC"}

**Query** Consider the substance 1757564: mixed MOE/cEt gapmer TTGGTGAATCTTTATTAA, sugar eeeekddddddddkeeke, linkages soossssssssssooss (eT*eTeGeG*kT*dG*dA*dA*dT*d[5mC]*dT*dT*dT*kAeTeT*kA*eA) [compound 1757564] . State its measured APOE RNA (% UTC).
**Result** 86 % UTC

**Query** Read off the recorded APOE RNA (% UTC) for 1757563: mixed MOE/cEt gapmer TTGGTGAATCTTTATTAA, sugar eeeekddddddddkekee, linkages soossssssssssooss (eT*eTeGeG*kT*dG*dA*dA*dT*d[5mC]*dT*dT*dT*kAeTkT*eA*eA) [compound 1757563]
**Result** 103 % UTC

**Query** Complete the entry with APOE RNA (% UTC) for 1766537 (eT*eTeGeGeT*dG[ms]dA[ms]dA[ms]dT*d[5mC]*dT*dT*dT[ms]dA*dT*kTkAeA*eA*e[5mC]; antisense) [Compound 1766537]
**Result** 111 % UTC

The measured values listed here are drawn from patent US20250353873A1.
